From: paper PMC5423977

# ASSAY METHOD TEXT: Plasma pharmacokinetics of BMS-986142, SAD
# Type: in vivo
# CONDITION SET: human, oral, SAD day 1, 15 mg, n = 6, read-out: Tmax median (min, max)
# Protocol: Eligible participants were confined to the clinical facility (WCCT Global, LLC, Cypress, CA) the day before dosing (day −1) and randomized to receive SAD or MAD treatment under fasting conditions for 10 h. […] Plasma samples were analyzed for BMS-986142 levels with a validated method using liquid chromatography tandem mass spectrometry (LC-MS/MS) detection. […] The lower limit of quantification (LLOQ) was 1.00 ng/mL in plasma. Plasma samples were analyzed for methotrexate levels using LC-MS/MS detection. […]
OBSERVED PROPERTY: Tmax (h)
// units = h; emit number, no label

What value of Tmax has been reported for the following compound? Cc1c(-c2c(F)cc(C(N)=O)c3[nH]c4c(c23)CC[C@H](C(C)(C)O)C4)cccc1-n1c(=O)c2cccc(F)c2n(C)c1=O [BMS-986142] 2

---

# ASSAY METHOD TEXT: Plasma pharmacokinetics of BMS-986142, MAD
# Type: in vivo, human
# CONDITION SET: human, plasma, oral; MAD day 14, 75 mg QD, n = 6; read-out: Cmin geometric mean (%CV)
OBSERVED PROPERTY: concentration at 14 day
Show the value, then the unit it is measured in.

What value of concentration at 14 day has been reported for the following molecule? `Cc1c(-c2c(F)cc(C(N)=O)c3[nH]c4c(c23)CC[C@H](C(C)(C)O)C4)cccc1-n1c(=O)c2cccc(F)c2n(C)c1=O` 0.0279 µg/mL

---

# ASSAY METHOD TEXT: Plasma pharmacokinetics of BMS-986142, SAD
# Format: in vivo
# CONDITION SET: human, oral, SAD day 1, 300 mg, n = 6, read-out: AUC(inf) geometric mean (%CV)
OBSERVED PROPERTY: AUC(0-inf) (ng·h/mL)
// units = ng·h/mL; emit number, no label

What value of AUC(0-inf) has been reported for the following compound? `Cc1c(-c2c(F)cc(C(N)=O)c3[nH]c4c(c23)CC[C@H](C(C)(C)O)C4)cccc1-n1c(=O)c2cccc(F)c2n(C)c1=O` 11400

---

# ASSAY METHOD TEXT: Plasma pharmacokinetics of BMS-986142, SAD
# Assay type: in vivo
# CONDITION SET: human, oral, SAD day 1, 50 mg, n = 6, read-out: AUC(inf) geometric mean (%CV)
OBSERVED PROPERTY: AUC(0-inf) (ng·h/mL)
// units = ng·h/mL; emit number, no label

What value of AUC(0-inf) has been reported for the following compound? Cc1c(-c2c(F)cc(C(N)=O)c3[nH]c4c(c23)CC[C@H](C(C)(C)O)C4)cccc1-n1c(=O)c2cccc(F)c2n(C)c1=O [BMS-986142] 1590

---

# ASSAY METHOD TEXT: Plasma pharmacokinetics of BMS-986142, MAD
# Assay type: in vivo, human
# CONDITION SET: human, plasma, oral; MAD day 14, 75 mg QD, n = 6; read-out: AUC(TAU) geometric mean (%CV)
OBSERVED PROPERTY: AUC (ng·h/mL)
// units = ng·h/mL; emit number, no label

What value of AUC has been reported for the following compound? `Cc1c(-c2c(F)cc(C(N)=O)c3[nH]c4c(c23)CC[C@H](C(C)(C)O)C4)cccc1-n1c(=O)c2cccc(F)c2n(C)c1=O` 2470

---

# ASSAY METHOD TEXT: Plasma pharmacokinetics of BMS-986142, MAD
# Type: in vivo, human
# CONDITION SET: human, plasma, oral; MAD day 14, 200 mg QD, n = 6; read-out: Cmax geometric mean (%CV)
OBSERVED PROPERTY: Cmax (ng/mL)
// units = ng/mL; emit number, no label

What value of Cmax has been reported for the following compound? `Cc1c(-c2c(F)cc(C(N)=O)c3[nH]c4c(c23)CC[C@H](C(C)(C)O)C4)cccc1-n1c(=O)c2cccc(F)c2n(C)c1=O` 592

---

# ASSAY METHOD TEXT: Plasma pharmacokinetics of BMS-986142, SAD
# Type: in vivo
# CONDITION SET: human, oral, SAD day 1, 300 mg, n = 6, read-out: AUC(0-T) geometric mean (%CV)
OBSERVED PROPERTY: AUC(0-t)
Show the value, then the unit it is measured in.

What value of AUC(0-t) has been reported for the following compound? `Cc1c(-c2c(F)cc(C(N)=O)c3[nH]c4c(c23)CC[C@H](C(C)(C)O)C4)cccc1-n1c(=O)c2cccc(F)c2n(C)c1=O` 11300 ng·h/mL

---

# ASSAY METHOD TEXT: Plasma pharmacokinetics of BMS-986142, SAD
# Type: in vivo
# CONDITION SET: human, oral, SAD day 1, 5 mg, n = 6, read-out: Tmax median (min, max)
OBSERVED PROPERTY: Tmax
Show the value, then the unit it is measured in.

What value of Tmax has been reported for the following molecule? Cc1c(-c2c(F)cc(C(N)=O)c3[nH]c4c(c23)CC[C@H](C(C)(C)O)C4)cccc1-n1c(=O)c2cccc(F)c2n(C)c1=O [BMS-986142] 2.03 h

---

# ASSAY METHOD TEXT: Plasma pharmacokinetics of BMS-986142, SAD
# Type: in vivo
# CONDITION SET: both sexes, human, oral, single dose, 5–900 mg dose range, read-out: Median Tmax (time of peak concentrations)
OBSERVED PROPERTY: Tmax

What value of Tmax has been reported for the following compound? `Cc1c(-c2c(F)cc(C(N)=O)c3[nH]c4c(c23)CC[C@H](C(C)(C)O)C4)cccc1-n1c(=O)c2cccc(F)c2n(C)c1=O` ≤ 2 h

---

# ASSAY METHOD TEXT: Plasma pharmacokinetics of BMS-986142, SAD
# Type: in vivo
# CONDITION SET: human, oral, SAD day 1, 900 mg, n = 6, read-out: AUC(inf) geometric mean (%CV)
OBSERVED PROPERTY: AUC(0-inf) (ng·h/mL)
// units = ng·h/mL; emit number, no label

What value of AUC(0-inf) has been reported for the following compound? `Cc1c(-c2c(F)cc(C(N)=O)c3[nH]c4c(c23)CC[C@H](C(C)(C)O)C4)cccc1-n1c(=O)c2cccc(F)c2n(C)c1=O` 28100

---

# ASSAY METHOD TEXT: Plasma pharmacokinetics of BMS-986142, SAD
# Format: in vivo
# CONDITION SET: human, oral, SAD day 1, 100 mg, n = 6, read-out: Tmax median (min, max)
OBSERVED PROPERTY: Tmax (h)
// units = h; emit number, no label

What value of Tmax has been reported for the following compound? Cc1c(-c2c(F)cc(C(N)=O)c3[nH]c4c(c23)CC[C@H](C(C)(C)O)C4)cccc1-n1c(=O)c2cccc(F)c2n(C)c1=O [BMS-986142] 1.5

---

# ASSAY METHOD TEXT: Plasma pharmacokinetics of BMS-986142, SAD
# Type: in vivo
# CONDITION SET: human, oral, SAD day 1, 15 mg, n = 6, read-out: AUC(inf) geometric mean (%CV)
OBSERVED PROPERTY: AUC(0-inf) (ng·h/mL)
// units = ng·h/mL; emit number, no label

What value of AUC(0-inf) has been reported for the following compound? Cc1c(-c2c(F)cc(C(N)=O)c3[nH]c4c(c23)CC[C@H](C(C)(C)O)C4)cccc1-n1c(=O)c2cccc(F)c2n(C)c1=O [BMS-986142] 388

---

# ASSAY METHOD TEXT: Plasma pharmacokinetics of BMS-986142, SAD
# Assay type: in vivo
# CONDITION SET: human, oral, 300 mg, SAD day 1, 300 mg, n = 6, read-out: T1/2 mean (SD) (converted)
OBSERVED PROPERTY: half-life (h)
// units = h; emit number, no label

What value of half-life has been reported for the following compound? `Cc1c(-c2c(F)cc(C(N)=O)c3[nH]c4c(c23)CC[C@H](C(C)(C)O)C4)cccc1-n1c(=O)c2cccc(F)c2n(C)c1=O` 10.6
